# viability, T/C values compiled below
# Test system: 186277-243-T-J2-PDC spheroids with HUVEC/MSC, viability
# TEST_DESCRIPTION: Anticancer human tumor 186277-243-T-J2-PDC patient-derived colon adenocarcinoma cell line growth inhibition [CLK]
# REPORTED_CONDITIONS: second compound 1 µM; first compound 10 µM; stronger effect = lower value
PROPERTY_MEASURED: viability, T/C (%)

INSERT INTO assay_data (compound, readout_value) VALUES
  ('Nc1ccccc1NC(=O)c1ccc(CNC(=O)OCc2cccnc2)cc1 + CN1CCN(c2cc(C(=O)Nc3cc4cc(-c5cnn(C)c5)ccc4cn3)ccn2)CC1', 0.7),
  ('COC1C=CCC(C)C(C)S(=O)(=O)NC(=O)c2ccc3c(c2)N(CC2CCC21)CC1(CCCc2cc(Cl)ccc21)CO3 (configuration not stated) + CN1CCN(c2cc(C(=O)Nc3cc4cc(-c5cnn(C)c5)ccc4cn3)ccn2)CC1', 0.24),
  ('COc1ccc([C@@H](O)c2cc(-c3ncnc4cc(N5CCOCC5)ccc34)c(F)cc2Cl)nn1 + CNC(=O)c1ccc(Nc2nc(OC3CCCC3)c3c(-c4ccc5nc(C)oc5c4)c[nH]c3n2)c(OC)c1', 12.2),
  ('C=CC(=O)N1CCN(c2nc(=O)n(-c3c(C)ccnc3C(C)C)c3nc(-c4c(O)cccc4F)c(F)cc23)C(C)C1 (configuration not stated) + CN1CCN(c2cc(C(=O)Nc3cc4cc(-c5cnn(C)c5)ccc4cn3)ccn2)CC1', 1.65),
  ('C#Cc1c(F)ccc2cc(O)cc(-c3ncc4c(N5CC6CCC(C5)N6)nc(OCC56CCCN5CC(F)C6)nc4c3F)c12 (configuration not stated) + CNC(=O)c1ccc(Nc2nc(OC3CCCC3)c3c(-c4ccc5nc(C)oc5c4)c[nH]c3n2)c(OC)c1', 3.31),
  ('CC(=O)O[C@H]1C(=O)[C@@]2(C)[C@H]([C@H](OC(=O)c3ccccc3)[C@]3(O)C[C@H](OC(=O)[C@H](O)[C@@H](NC(=O)c4ccccc4)c4ccccc4)C(C)=C1C3(C)C)[C@]1(OC(C)=O)CO[C@@H]1C[C@@H]2O + CN1CCN(c2cc(C(=O)Nc3cc4cc(-c5cnn(C)c5)ccc4cn3)ccn2)CC1', 0.69),
  ('Nc1ccccc1NC(=O)c1ccc(CNC(=O)OCc2cccnc2)cc1 + CNC(=O)c1ccc(Nc2nc(OC3CCCC3)c3c(-c4ccc5nc(C)oc5c4)c[nH]c3n2)c(OC)c1', 1.52);

* * *

# Test system: 186277-243-T-J2-PDC spheroids with HUVEC/MSC, viability
# TEST_DESCRIPTION: Anticancer human tumor 186277-243-T-J2-PDC cell line growth inhibition [CLK]; active = viability on the fitted dose curve at most 10% of control; inactive = the rest;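 further: compound exposure lasted seven days before readout; 100% = DMSO vehicle control wells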
# REPORTED_CONDITIONS: second compound 3.16 µM; first compound 3.16 µM
# Text: A high-throughput screen of multi-cell type tumor spheroids was designed to identify active combinations of […] and targeted small molecules. Complex spheroids include a stromal component modeled by human endothelial cells (HUVEC) and fibroblasts modeled by human mesenchymal stem cells (MSCs). […] Compounds. […] If the clinical Cmax for an agent had not been determined, the highest concentration tested was 10 microM. […]
Classes used: TRUE (active), FALSE (inactive)

INSERT INTO assay_data (compound, group_label) VALUES
  ('CC(Nc1ccc2c(c1)OCCn1cc(N3C(=O)OCC3C(F)F)nc1-2)C(N)=O (stereo not drawn) + CNC(=O)c1ccc(Nc2nc(OC3CCCC3)c3c(-c4ccc5nc(C)oc5c4)c[nH]c3n2)c(OC)c1', 'TRUE'),
  ('O=c1[nH]cc(F)c(=O)[nH]1 + CNC(=O)c1ccc(Nc2nc(OC3CCCC3)c3c(-c4ccc5nc(C)oc5c4)c[nH]c3n2)c(OC)c1', 'FALSE'),
  ('C=CC(=O)N1CCN(c2nc(=O)n(-c3c(C)ccnc3C(C)C)c3nc(-c4c(O)cccc4F)c(F)cc23)C(C)C1 (stereo not drawn) + CN1CCN(c2cc(C(=O)Nc3cc4cc(-c5cnn(C)c5)ccc4cn3)ccn2)CC1', 'TRUE');
